MEASUREMENT NOTES: Drug repurposing screens with cells derived from glioblastoma tumor samples (AID 1345199); also: % is scaled to controls: 0 for no effect and ±100 for the full control effect; nearly all actives have a fitted effect of over 40% in size
CONDITION DESCRIPTION: GBM patient neurospheres viability, ATP luminescence, 48 h; at 45.9 µM (top of the series); tumour line B
Records with an inconclusive call do not appear.
REPORTED PROPERTY: activity, negative = cell killing (%)
Numbers only here, please. The scale is %.

Sample CC[N+](C)(CC)CCOC(=O)C1c2ccccc2Oc2ccccc21 ; activity, negative = cell killing observed: -11.7

Looking up Cc1ccsc1C(=CCCN1CCC[C@@H](C(=O)O)C1)c1sccc1C , I found its activity, negative = cell killing recorded as -2.91

// activity, negative = cell killing value for O=C(NCN1CCOCC1)c1cnccn1 : -3.93

activity, negative = cell killing recorded for this compound, CN1C(C)(C)CCCC1(C)C , is -6.99

Quick note, activity, negative = cell killing for CCCNC(C)(C)COC(=O)c1ccccc1 landed at -3.47

* * *

max response for assorted molecules
Tested on: HaCat
MEASUREMENT NOTES: Cytotoxic Profiling of Annotated Libraries Using Quantitative High-Throughput Screening (AID 1296008); also: % is scaled to controls: 0 for no effect and ±100 for the full control effect; nearly all actives have a fitted effect of over 60% in size
CONDITION DESCRIPTION: Five cell lines viability, CellTiter-Glo ATP luminescence, 48-72 h; stronger effect = lower value
Results filed as inconclusive are left out.
Please give a number only; it is taken to be in %.

Solved entries:
{"MOLECULE": "CC(C)CCOC(=O)c1ccc(N(C)C)cc1", "REPORTED PROPERTY": "max response", "ENDPOINT UNIT": "%", "QUANTITATIVE READOUT": -5.98}
{"MOLECULE": "O=C(O)C(S)C(S)C(=O)O (stereo unspecified)", "REPORTED PROPERTY": "max response", "ENDPOINT UNIT": "%", "QUANTITATIVE READOUT": 3.59}
{"MOLECULE": "Cc1cc(=O)[nH]c(=S)[nH]1", "REPORTED PROPERTY": "max response", "ENDPOINT UNIT": "%", "QUANTITATIVE READOUT": -13.5}
{"MOLECULE": "Nc1ccc(C(=O)Oc2ccccc2)c(O)c1", "REPORTED PROPERTY": "max response", "ENDPOINT UNIT": "%", "QUANTITATIVE READOUT": -1.24}
{"MOLECULE": "CCCCC1(COC(=O)CCC(=O)O)C(=O)N(c2ccccc2)N(c2ccccc2)C1=O", "REPORTED PROPERTY": "max response", "ENDPOINT UNIT": "%", "QUANTITATIVE READOUT": -4.26}

Record C=CCN1C[C@H](C(=O)N(CCCN(C)C)C(=O)NCC)C[C@@H]2c3cccc4[nH]cc(c34)C[C@H]21 . Reported max response: -1.25

// sample NS(=O)(=O)c1cc(C2(O)NC(=O)c3ccccc32)ccc1Cl (stereo unspecified) , its max response was 3.24

Short answer for O=C1c2ccccc2S(=O)(=O)N1CCCCN1CCN(c2ncccn2)CC1 : max response was -10.1

Field max response (entry CCCC(O)C(CC)CO (stereo unspecified) ) reads -9.38

Entry Cc1c(I)c(=O)n(-c2ccccc2)n1C , max response reported as -20.9

* * *

Test system: NIH3T3
MEASUREMENT NOTES: Cytotoxic Profiling of Annotated Libraries Using Quantitative High-Throughput Screening (AID 1296008); also: % is scaled to controls: 0 for no effect and ±100 for the full control effect; nearly all actives have a fitted effect of over 60% in size
CONDITION DESCRIPTION: Five cell lines viability, CellTiter-Glo ATP luminescence, 48-72 h; stronger effect = lower value
Records with an inconclusive call do not appear. Active and inactive are the calls of the source. Calls follow the shape of the dose curve; as a rule, active = well fitted inhibition curve with a large enough effect; inconclusive = small, poorly fitted or top-dose-only effect; inactive = flat fitted curve, though single readings scatter.
Recorded max response, one value per entry.

{"COMPOUND": "C=CCOc1ccccc1OCC(O)CNC(C)C (stereo not given)", "max response": "4.04% (inactive)"}
{"COMPOUND": "CN1C[C@@H]2C[C@H]1CN2c1cc2c(cc1F)c(=O)c(C(=O)O)cn2C1CC1", "max response": "-10.1% (inactive)"}
{"COMPOUND": "CC1(C)S[C@@H]2[C@H](NC(=O)C(C(=O)O)c3ccccc3)C(=O)N2[C@H]1C(=O)O (stereo not given in full)", "max response": "-1.06% (inactive)"}

Form: item O=C(O)Cc1ccc(CCNS(=O)(=O)c2ccc(Cl)cc2)cc1 ; test system NIH3T3; max response: -0.48% (inactive)

Result for CC[N+](CC)(CC(=O)Nc1c(C)cccc1C)Cc1ccccc1 , tested on NIH3T3, max response: 1.97% (inactive)

* * *

System: CP203
MEASUREMENT NOTES: qHTS profiling for inhibitors of Plasmodium falciparum proliferation (AID 504749); also: nearly all actives have a fitted effect of over 60% in size
CONDITION DESCRIPTION: P. falciparum in erythrocytes, SYBR Green DNA, 72 h; series mostly up to 28.7 µM
Records with an inconclusive call do not appear. Calls of active or inactive are those of the source. The call rests on the fitted dose curve; in most records, active means well fitted inhibition curve with a large enough effect; inconclusive means small, poorly fitted or top-dose-only effect; inactive means flat fitted curve, though single readings scatter.
Pick one and only one: active, inactive

See these solved cases before continuing.
{"MOLECULE": "CC(CN(C)C)C(C)(O)Cc1ccc(Cl)cc1 (stereo unspecified)", "CLASS": "active"}
{"MOLECULE": "O=C1c2ccccc2S(=O)(=O)N1CCCCN1CCN(c2ncccn2)CC1", "CLASS": "inactive"}
{"MOLECULE": "Cc1cc(NC(=O)C2=C(O)c3ccccc3S(=O)(=O)N2C)no1", "CLASS": "inactive"}
{"MOLECULE": "CCCC(O)C(CC)CO (stereo unspecified)", "CLASS": "inactive"}
{"MOLECULE": "OCC(O)CS (stereo unspecified)", "CLASS": "inactive"}
{"MOLECULE": "O=C(O)CNC(=O)c1ccccc1I", "CLASS": "inactive"}
{"MOLECULE": "CC(=O)OCC(COC(C)=O)OC(C)=O", "CLASS": "inactive"}
{"MOLECULE": "C=CCSCC1Nc2cc(Cl)c(S(N)(=O)=O)cc2S(=O)(=O)N1 (stereo unspecified)", "CLASS": "inactive"}
{"MOLECULE": "Cc1ccccc1N=Nc1ccc(N=Nc2c(O)ccc3ccccc23)c(C)c1", "CLASS": "inactive"}
{"MOLECULE": "COc1ccc(C(=O)N2CCN(CC(=O)N3CCOCC3)CC2)cc1", "CLASS": "inactive"}

Query: recorded result category for CCCCCCCC(=O)OCC(O)CO (stereo unspecified) in this test
inactive

Hi team, can someone confirm the assay call for Cc1cc(-n2nc3ccc(Cl)cc3n2)c(O)c(C(C)(C)C)c1 ?
inactive

Give the logged outcome of this assay for the following molecule: CNCc1ccccc1
inactive

* * *

Test system: C33A
MEASUREMENT NOTES: Primary qHTS to identify gynecologic anti-cancer compounds using libraries of approved drugs and bioactive compounds (AID 1345084); also: % is scaled to controls: 0 for no effect and ±100 for the full control effect; nearly all actives have a fitted effect of over 55% in size
CONDITION DESCRIPTION: Gynecologic cancer cell panel viability, ATPlite luminescence, 48 h; series mostly up to 57.5 µM
Records with an inconclusive call do not appear. The source made the active and inactive calls. Calls follow the shape of the dose curve; as a rule, active = well fitted cell-killing curve with a large enough effect; inconclusive = small, poorly fitted or top-dose-only effect, or effect the other way; inactive = flat fitted curve, though single readings scatter.
REPORTED PROPERTY: activity change, negative = cytotoxicity

{"MOLECULE": "Cc1c(NC(=O)c2cccnc2)c(=O)n(-c2ccccc2)n1C", "RESULT": "inactive"}
{"MOLECULE": "Cc1ccccc1N=Nc1ccc(N=Nc2c(O)ccc3ccccc23)c(C)c1", "RESULT": "inactive"}
{"MOLECULE": "CN1CC(=O)NC1=N", "RESULT": "inactive"}
{"MOLECULE": "CC(N)CCCC(C)(C)O (stereo not drawn)", "RESULT": "inactive"}
{"MOLECULE": "NC(=O)c1ccc([N+](=O)[O-])cc1Cl", "RESULT": "inactive"}

// CCS(=O)(=O)CCn1c([N+](=O)[O-])cnc1C : activity change, negative = cytotoxicity value = inactive

The value of activity change, negative = cytotoxicity measured for the molecule CCCCCCCC(=O)OCC(COC(=O)CCCCCCC)OC(=O)CCCCCCC turned out to be inactive

Entry under test: O[C@@H]1CO[C@H]2[C@@H]1OC[C@@H]2O . Its activity change, negative = cytotoxicity was inactive

Note to self: activity change, negative = cytotoxicity recorded for O=C(O)/C=C/c1ccc(Cn2ccnc2)cc1 was inactive

activity change, negative = cytotoxicity for CCCNC(C)(C)COC(=O)c1ccccc1 is inactive

* * *

MEASUREMENT NOTES: qHTS Assay for Identifying Gametocytocidal Compounds (AID 743244);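 also: % is scaled to controls: 0 for no effect and ±100 for the full control effect; actives lower the fluorescent signal which means gametocytes are killed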
CONDITION DESCRIPTION: P. falciparum 3D7 stage III-V gametocytes, alamarBlue, 72 h; stronger effect = lower value
Text: Malaria cases and deaths have dropped 50% in 29 countries since 2000 due to the combined effects of long-lasting insecticidal bednets, indoor residual spraying, and artemisinin-based combination therapies (ACTs). […] Within live cells, the nonfluorescent resazurin is reduced to resorufin, a bright red fluorescence dye. Fluorescence decreases upon treatment of gametocytocidal compounds. […]
Records with an inconclusive call do not appear.
Listed compounds paired with reported max response
The answer is to be given in %; state only the numeric part.

Examples with answers:
{"COMPOUND": "OCc1ccc(Cl)cc1Cl", "max response, %": -2.07}
{"COMPOUND": "CC1(C)S[C@@H]2[C@H](NC(=O)C(C(=O)O)c3ccccc3)C(=O)N2[C@H]1C(=O)O (stereo partly specified)", "max response, %": -0.734}
{"COMPOUND": "C[n+]1ccccc1/C=N/O", "max response, %": 8.92}
{"COMPOUND": "O=C(NCC(O)CO)c1c(I)c(C(=O)NCC(O)CO)c(I)c(N(CCO)C(=O)CO)c1I (stereo unspecified)", "max response, %": 8.95}
{"COMPOUND": "CC1CCN(CCCC(=O)c2ccc(F)cc2)CC1", "max response, %": 1.92}
{"COMPOUND": "CNc1c2c(nn1C)CCCC2", "max response, %": 6.79}
{"COMPOUND": "NC(=O)c1ccc([N+](=O)[O-])cc1Cl", "max response, %": -9.98}
{"COMPOUND": "Cc1c(N(C)C)c(=O)n(-c2ccccc2)n1C", "max response, %": -4.29}

// max response value for CCCCCC(C)N (stereo unspecified) : 7.89

# max response (compound: O=C(NCCCN1CCOCC1)c1ccc(Cl)cc1 ) is -7.89

The recorded max response for entry O=C(O)c1ccccc1C(=O)Nc1ccc(S(=O)(=O)Nc2nccs2)cc1 equals 31

The compound CCc1cccc(CC)c1NC(=O)CN(CC(=O)O)CC(=O)O showed max response equal to 12.1

Form: compound = NC(=O)N[C@@H](CCC(=O)O)C(=O)O ; max response = -4.71

Entry Cc1[nH]c(C)c(Cl)c(=O)c1Cl — recorded max response = -2.25

# compound O=C(O)CCCCC1CCSS1 (stereo unspecified) ; its max response = 3.67

Looking up CCCCCCCCCCCCCCCCN , I found its max response recorded as 6.4

Per the records, this compound ( CC(C)(C)NCC(O)COc1cccc2c1CCC(=O)N2 (stereo unspecified) ) has max response equal to 15.2
